meta.source: PubChem BioAssay (NCI)

- Test system: MOLT-4 leukemia
- assay: NCI-60 one-dose screen, 48 h
- settings: 10 µM unless noted
- Description: Growth inhibition of the MOLT-4 human tumor cell line is measured as a screen for anti-cancer activity. Cells are grown in 96 well plates and exposed to the test compound for 48 hours. Compounds are tested at a single concentration, which is 10^-5 M for most compounds. The reported endpoint is percent growth (GI% or GIPRCNT), where numbers from 0 - 100% represent growth inhibition, and numbers from -100% - 0 represent cell death. For example, a value of 40 represents 60% growth inhibition. […]
About 83,000 compounds went through this panel and 20% of them were active in at least one assay; those are over-represented in the sample as a whole. Active and inactive are the calls of the source. The calls were made as follows: active = growth percent below 10; inactive = the rest.
Give your call using only these classes: active, inactive

Examples from the recorded data:
NC(N)=NS(=O)(=O)c1ccc(N=NC2C(=O)NN(c3ccccc3)C2=O)cc1 (stereo not given)    inactive
O=[N+]([O-])c1ccc(-c2nnc(SCc3ccc(O)c4ncccc34)n2-c2ccccc2)cc1    inactive
COc1ccc(-c2nn(-c3ccccc3)cc2/C=C/C(=O)c2ccc(NC(=O)CCCCCCC(=O)NO)cc2)cc1    inactive
O=S(=O)(Nc1cc(Cl)c(F)c(Cl)c1)c1ccc(-c2cnc(C3CC3)o2)cc1    inactive

Test call, this compound: "O=C1c2c(O)cc(O)cc2O[C@@H](c2ccc(O)cc2)[C@@H]1c1c(O)cc(O)c2c(=O)cc(-c3ccc(O)c(O)c3)oc12" inactive

Kindly provide the recorded test outcome for the following compound: "COc1cccc(/C=C/C(=O)c2ccc(NC(=O)COc3cccc4cccnc34)cc2)c1" inactive

Recorded test outcome, item "Oc1ccccc1-c1nnc(SCc2ccc(O)c3ncccc23)o1" inactive

---

Overview of reported growth across a group of molecules:
- Test system: NCI-H460 lung
- assay: NCI-60 one-dose screen, 48 h (100 = growth as untreated, 0 = no growth, -100 = all killed)
- settings: 10 µM unless noted
Compounds without any hit were thinned out: in the full panel of roughly 83,000, 20% have a hit.
Write the number in % without appending the unit.

These recorded examples may help you get a feel for the data.
CCC(=O)Nc1cc(Nc2cc(NC3CC3)n3ncc(C#N)c3n2)ccc1C    16.1
CC1CCN(S(=O)(=O)c2ncsc2-c2ccccc2)CC1    91.5
COC(=O)c1c(C(=O)OC)c2n(CC(=O)Nc3cccc4cccnc34)c3ccccc3n2c1C(=O)c1ccc(C)cc1    103
Cc1ccc(-c2cc(-c3ccc(N(C)C)cc3)n3c(n2)nc2ccccc23)cc1    61.7
Cc1cn(-c2cc(NC(=O)c3cncc(C#Cc4cnc5ccc(O[C@H]6CCOC6)nn45)c3)cc(C(F)(F)F)c2)cn1    99.9
CCc1ccc(NC(=O)N[C@@H](Cc2cccc(F)c2)C(=O)N[C@@H]2C(=O)N3CCC[C@H]3C(=O)N3CCCC[C@H]3C(=O)N[C@@H](C)C(=O)N3C[C@H](C)C[C@H]3C(=O)O[C@H]2C)c(F)c1    15.4
Cc1ccc(Cc2cnc(NC(=O)/C(C#N)=C/c3ccc(-c4ccc(Cl)cc4)o3)s2)cc1    83.8
C=CCn1c(SCC(=O)Nc2cccc(C(=O)/C=C/c3ccc(Cl)cc3)c2)nc2ccccc2c1=O    95.4

Now examine the next entry.
For the molecule "O=C(Nc1ccccc1)Nc1nc2ccc([N+](=O)[O-])cc2s1" , give its reported growth. 4.82
